Molecular target: Recombinant human DPP1 enzyme (Homo sapiens (Human))
Sequence (P53634 25-134): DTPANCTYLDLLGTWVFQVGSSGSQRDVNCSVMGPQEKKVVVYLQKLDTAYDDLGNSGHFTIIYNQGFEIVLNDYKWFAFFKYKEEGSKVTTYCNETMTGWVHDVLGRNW
Sequence (P53634 231-394): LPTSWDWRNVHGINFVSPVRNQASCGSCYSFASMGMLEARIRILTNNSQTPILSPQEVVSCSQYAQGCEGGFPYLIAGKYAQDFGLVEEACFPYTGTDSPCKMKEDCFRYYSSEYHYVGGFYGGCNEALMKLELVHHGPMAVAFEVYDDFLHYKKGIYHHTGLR
Sequence (P53634 395-463): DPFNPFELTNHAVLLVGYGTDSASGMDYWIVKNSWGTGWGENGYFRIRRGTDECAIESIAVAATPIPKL
Assay: Human DPP1 Enzyme IC50 Assay
Assay type: biochemical
Details: figure legends FIG. 14 and 15; read-out: IC50, in vitro inhibition of human DPP1
parameter: IC50 (nM)

In [3]: df
Out[3]:
                                 mol_smiles  measured_value
0  Cn1c(=O)oc2ccc(-c3ccc(C[C@@H](C#N)NC(=O)[C@@H]4C[C@H]5COC[C@H]5N4)cc3)cc21            69.2
1  N#Cc1ccc(-c2ccc(C[C@@H](C#N)NC(=O)[C@@H]3C[C@H]4COC[C@H]4N3)cc2)cc1             245

----------
Biological target: DPP1 in HL-60 cells (Homo sapiens (Human), UniProt P53634)
Sequence (P53634 25-134): as the sequence (P53634 25-134) above
Sequence (P53634 231-394): as the sequence (P53634 231-394) above
Sequence (P53634 395-463): as the sequence (P53634 395-463) above
Experiment: DPP1 Cell IC50 Assay (HL-60 cells, H-Gly-Phe-AFC substrate)
Format: cell-based
Settings: Table 16, read-out: Cell Assay
pIC50: −log10 of the molar value.
The entries below are paired with their reported pIC50.
parameter: pIC50

>>> df
                                   compound  parameter  measured_value
0  [2H]C([2H])([2H])n1c(=O)oc2ccc(-c3ccc(C[C@@H](C#N)NC(=O)[C@@H]4C[C@@H]5COC[C@@H]5N4)c(F)c3)cc21      pIC50            6.84
1  Cn1c(=O)oc2ccc(-c3ccc(C[C@@H](C#N)NC(=O)C4CC5OCCC5N4)cc3)cc21 (stereo partly shown)      pIC50            6.06
2  Cn1c(=O)oc2ccc(-c3ccc(C[C@@H](C#N)NC(=O)CC4(N)CCCCC4)cc3)cc21      pIC50            7.40
3  Cn1c(=O)oc2ccc(-c3ccc(C[C@@H](C#N)NC(=O)[C@@H]4C[C@@H]5CCC[C@@H]5N4)c(F)c3)cc21 [drawing 1220]      pIC50            8.77
4  [2H]C([2H])([2H])n1c(=O)oc2ccc(-c3ccc(C[C@@H](C#N)NC(=O)[C@@H]4C[C@@H]5COC[C@@H]5N4)cc3)cc21      pIC50            6.30
5  Cn1c(=O)oc2ccc(-c3ccc(C[C@@H](C#N)NC(=O)C4CNCC45CCC5)cc3)cc21 (stereo partly shown) [drawing 1188]      pIC50            7.22
6  Cn1c(=O)oc2ccc(-c3ccc(C[C@@H](C#N)NC(=O)C4CNC(C)(C)CO4)cc3)cc21 (stereo partly shown)      pIC50            7.26

----------
Target: active mouse DPP1 enzyme (Mus musculus (Mouse), UniProt P97821)
Sequence (P97821 25-134): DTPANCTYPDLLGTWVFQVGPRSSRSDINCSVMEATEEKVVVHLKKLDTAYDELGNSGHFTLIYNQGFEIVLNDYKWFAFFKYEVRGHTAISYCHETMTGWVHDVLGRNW
Sequence (P97821 231-393): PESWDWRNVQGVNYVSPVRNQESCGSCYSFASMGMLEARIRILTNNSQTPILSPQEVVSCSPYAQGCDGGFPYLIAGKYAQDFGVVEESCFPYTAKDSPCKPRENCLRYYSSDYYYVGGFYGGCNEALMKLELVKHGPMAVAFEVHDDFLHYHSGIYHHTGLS
Sequence (P97821 394-462): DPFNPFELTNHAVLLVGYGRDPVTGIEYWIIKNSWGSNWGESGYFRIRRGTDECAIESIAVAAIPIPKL
Assay: Mouse DPP1 Enzyme IC50 Assay
Assay type: biochemical
Conditions: mouse DPP1 enzyme; Table 16; read-out: IC50, nM; Mouse
Label Satisfied when IC50 is strictly below 100 nM; at or above that, label Not satisfied.

>>> df
                                    compound  assigned_class
 0  Cn1c(=O)oc2ccc(-c3ccc(C[C@@H](C#N)NC(=O)C4(C)CNCCO4)cc3)cc21 (stereo partly shown)   Not satisfied
 1  Cn1c(=O)oc2ccc(-c3ccc(C[C@@H](C#N)NC(=O)CC4COCCN4)cc3)cc21 (stereo partly shown)   Not satisfied
 2  Cn1c(=O)oc2ccc(-c3ccc(C[C@@H](C#N)NC(=O)[C@@H]4CNCCCO4)c(F)c3)cc21       Satisfied
 3  N#Cc1ccc(-c2ccc(C[C@@H](C#N)NC(=O)[C@H]3C[C@@H]4COC[C@@H]4N3)cc2)cc1   Not satisfied
 4  Cn1c(=O)oc2ccc(-c3ccc(C[C@@H](C#N)NC(=O)[C@@H]4C[C@@H]5C[C@@H]5N4)cc3)cc21   Not satisfied
 5  Cn1c(=O)oc2ccc(-c3ccc(C[C@@H](C#N)NC(=O)[C@@H]4C[C@@H]5CCC[C@@H]5N4)c(F)c3)cc21 [drawing 1220]       Satisfied
 6  Cn1c(=O)oc2ccc(-c3ccc(C[C@@H](C#N)NC(=O)[C@@H]4CNCCCO4)cc3)cc21 [drawing 1149]       Satisfied
 7  Cn1c(=O)oc2ccc(-c3ccc(C[C@@H](C#N)NC(=O)C4CNCC(O)C4)cc3)cc21 (stereo partly shown)   Not satisfied
 8  Cn1c(=O)oc2ccc(-c3ccc(C[C@@H](C#N)NC(=O)C4=CS(=O)(=O)CCNC4)cc3)cc21   Not satisfied
 9  Cn1c(=O)oc2ccc(-c3ccc(C[C@@H](C#N)NC(=O)CC4(N)CCOC4)cc3)cc21 (stereo partly shown)   Not satisfied
10  Cn1c(=O)oc2ccc(-c3ccc(C[C@@H](C#N)NC(=O)C4CC5OCCC5N4)cc3)cc21 (stereo partly shown)   Not satisfied
11  Cn1c(=O)oc2ccc(-c3ccc(C[C@@H](C#N)NC(=O)[C@H]4C[C@@H]5COC[C@@H]5N4)cc3)cc21   Not satisfied
12  Cn1c(=O)oc2ccc(-c3ccc(C[C@@H](C#N)NC(=O)[C@@H]4C[C@H]5COC[C@H]5N4)cc3)cc21 [drawing 1154]       Satisfied
13  Cn1c(=O)oc2ccc(-c3ccc(C[C@@H](C#N)NC(=O)C4CNCC45CCC5)cc3)cc21 (stereo partly shown) [drawing 1188]   Not satisfied
14  Cn1c(=O)oc2ccc(-c3ccc(C[C@@H](C#N)NC(=O)[C@@H]4C[C@@H]5COC[C@@H]5N4)s3)cc21   Not satisfied
15  N#Cc1ccc(-c2ccc(C[C@@H](C#N)NC(=O)[C@@H]3C[C@@H]4COC[C@@H]4N3)c(F)c2)cc1   Not satisfied
